Assay: chemical genetic growth profiling, strain panel (AID 1159580);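 also: tested at 20 µM; growth read once vehicle control cultures reached saturation at 30 °C; 1 = growth at the plate median or of vehicle wells; lower values mean less growth of the strain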
Details: S. cerevisiae deletion strains, growth OD, locus YML016C, strain PPZ1, hits give low values
The campaign covered roughly 5,500 compounds. About 2,000 (36%) were called active. Roughly 18% stayed inconclusive and do not appear here. Some of the results follow.
Mark yes only for normalized growth values smaller than 1; exact matches and larger values are no.

Some entries whose results are on file:
O=C1C=C(O)c2ccccc2C1=O | yes
O=c1c(O)cccc2cc(O)c(O)c(O)c12 | yes
CNC(=O)Oc1ccccc1OC(C)C | no

Does this compound meet the criterion normalized growth < 1? O=C1c2cccc(O)c2C(=O)c2c(O)cccc21 yes

Quick check: normalized growth of NC(=NCCCCCCN=C(N)N=C(N)Nc1ccc(Cl)cc1)N=C(N)Nc1ccc(Cl)cc1 under 1? yes

State whether 1 exceeds normalized growth recorded for O=C1C(=O)c2ccccc2C(O)=C1C1CCC(c2ccc(Cl)cc2)CC1 (stereo not drawn) . yes

###

Experiment: chemical genetic growth profiling, strain panel (AID 1159580)
Settings: S. cerevisiae deletion strains, growth OD, locus YDR392W, strain spt3, hits give low values
The whole screen tested about 5,500 compounds, of which about 2,000 (36%) were called active. About 18% were inconclusive and are not listed. Some of the results follow.
Attribute: normalized growth
Kindly provide the number alone.

# annotated cases, reported normalized growth shown
Cn1c(=O)[nH]c2nc[nH]c2c1=O | 0.972
Cc1cc(O)c2c(c1)C(=O)c1cccc(O)c1C2=O | 0.82
Cn1c(=O)[nH]c2ncn(C)c2c1=O | 0.937
CON | 1.12
C/C(=C\CO)CC[C@H](C)CCC[C@H](C)CCCC(C)C | 1.11

Query (compound): Cn1c(=O)c2c(ncn2C)n(C)c1=O ; field requested: normalized growth 0.942

So what's the measured normalized growth for this one? CCCc1ncc(C[n+]2ccccc2C)c(N)n1 1.08

Which normalized growth value belongs to COC1=CC23CCCN2CCc2cc4c(cc2C3C1O)OCO4 (stereo unspecified) ? 0.971

What does the data say about its normalized growth? Entry: CNC(=O)Oc1ccccc1OC(C)C 0.978

Field request: normalized growth | item: O=C1C=CC(=O)c2c(O)c(Cl)c(Cl)c(O)c21 0.11

Would you kindly share the measured normalized growth for CN1CCC[C@H]1c1cccnc1 ? 0.964

Data request, read-out normalized growth, for CCC[C@@H]1C[C@@H](C(=O)N[C@H]([C@H]2O[C@H](SC)[C@H](O)[C@@H](O)[C@H]2O)[C@H](C)O)N(C)C1 1.04

###

Assay: chemical genetic growth profiling, strain panel (AID 1159580)
Conditions: S. cerevisiae deletion strains, growth OD, locus YDL185W, strain tfp1
Screen size: about 5,500 compounds; about 2,000 (36%) were called active. Not shown: some 18% with an inconclusive outcome. Rule as the data show it: active = normalized growth mostly below about 0.91 (no sharp cut-off); inconclusive = no clear call, values can overlap the other calls; inactive = mostly above about 0.92. This is one part of the list.
Outcome (select one): true (active), false (inactive)

Please review the entries below; each comes with its answer.
Cn1c(=O)c2c(ncn2CCCl)n(C)c1=O | false
CC(C)[C@@H]1CC[C@@H](C)C[C@H]1OC(=O)c1ccccc1 | false
COC(=O)C(O)[C@H]1C(C)(C)[C@@H](OC(C)=O)[C@@H]2CC3=C4CC(=O)O[C@@H](c5ccoc5)[C@]4(C)CCC3[C@@]1(C)C2=O (stereo partly drawn) | false

So what was the verdict on CNC(=O)Oc1cccc2c1OC(C)(C)C2 in this test? false

Returns: the outcome recorded for CC(=O)CCCCn1c(=O)c2c(ncn2C)n(C)c1=O in this assay. false

###

Assay: chemical genetic growth profiling, strain panel (AID 1159580)
Conditions: S. cerevisiae deletion strains, growth OD, locus YOL006C, strain TOP1, hits give low values
In all, about 5,500 compounds went through this assay and about 2,000 (36%) were called active. Another 18% or so got no clear call; they are omitted. The list shows a part of the results.
endpoint.label: normalized growth
Number only, please.

COC(=O)c1cc(OC)c(=O)c2c(OC)c(OC)ccc2c1 | 1.21
O=C(/C=C/c1ccccc1)c1ccc(O[C@@H]2O[C@H](CO)[C@@H](O)[C@H](O)[C@H]2O)cc1O | 0.879
CNC(=O)N(C)c1nnc(C(C)(C)C)s1 | 1.06
CC(=O)Nc1c(I)cc(I)c(C(=O)O)c1I | 1.02
CN1CCCCC1c1ccc(-c2cccnc2)nc1 (stereo unspecified) | 1.11

Given the entry CC(C)[C@@H]1CC[C@@H](C)CC1=O , report its measured normalized growth. 1.06

If you can, please state the reported normalized growth value of CNC(=O)Oc1cccc2c1OC(C)(C)C2 . 1.01

Data request, read-out normalized growth, for Cc1ccc(NC(=S)C(C#N)C(=O)N2CCCC2)c(C)c1 (stereo unspecified) 1.04

Reported normalized growth, molecule O=C(/C=C/c1ccccc1)c1c(O)cc(O)cc1O : ____ 1.05

Recorded normalized growth for O=C(NNC(=S)Nc1cccc(Cl)c1)c1cccnc1 , please? 0.803

Could you tell me which normalized growth is on file for COc1ccc(/C=C/c2cc(O)cc(O[C@@H]3O[C@H](CO)[C@@H](O)[C@H](O)[C@H]3O)c2)cc1 ? 1.05

###

This listing pairs compounds with measured normalized growth.
Assay: chemical genetic growth profiling, strain panel (AID 1159580);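 also: tested at 20 µM; growth read once vehicle control cultures reached saturation at 30 °C; 1 = growth at the plate median or of vehicle wells; lower values mean less growth of the strain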
Settings: S. cerevisiae deletion strains, growth OD, locus YAL026C, strain drs2, hits give low values
In all, about 5,500 compounds went through this assay and about 2,000 (36%) were called active. About 18% were inconclusive and are not listed. This is one part of the list.
Answer as a number with no unit attached.

Would you please look over these solved cases?
O=C1C=CC(=O)c2c(O)cccc21 | 0.951
O=C1c2cccc(O)c2C(=O)c2c(O)cccc21 | 0.823
O=C(c1ccccc1)c1ccc2n1CCC2C(=O)O (configuration not stated) | 0.983
CC(=O)O[C@H]1CC2CCC3C(CC[C@@]4(C)C3C[C@H]([N+]3(C)CCCCC3)[C@@H]4OC(C)=O)[C@@]2(C)C[C@@H]1N1CCCCC1 (some centres not stated) | 1.03
CC1CC(OC(=O)c2ccccc2O)CC(C)(C)C1 (configuration not stated) | 0.989
CC(C)=CCC/C(C)=C/CO | 0.98

Requested field: normalized growth. Item: CC(=O)CCCCn1c(=O)c2c(ncn2C)n(C)c1=O 1.01

Given the entry CC(C)CCCC(C)N (configuration not stated) , report its measured normalized growth. 1.02

What value of measured normalized growth is listed for CNC(=O)Oc1ccccc1OC(C)C ? 0.99

What does the record list as normalized growth for O=c1c(O)cccc2cc(O)c(O)c(O)c12 ? 0.425

Given the entry COc1cc(Cc2cnc(N)nc2N)cc(OC)c1OC , report its measured normalized growth. 1.01

Can you look up the measured normalized growth of Cc1cc(O)c2c(c1)C(=O)c1cccc(O)c1C2=O for me? 0.974

###

// reported normalized growth per item
Assay: chemical genetic growth profiling, strain panel (AID 1159580);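 also: tested at 20 µM; growth read once vehicle control cultures reached saturation at 30 °C; 1 = growth at the plate median or of vehicle wells; lower values mean less growth of the strain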
Details: S. cerevisiae deletion strains, growth OD, locus YER002W, strain NOP16, hits give low values
The whole screen tested about 5,500 compounds, of which about 2,000 (36%) were called active. Inconclusive results (about 18%) are left out. This is one part of the list.
// keep it numeric: no unit symbol after the value

Check out these entries, answers already filled in.
CCCn1cnc2c1c(=O)n(CCCCC(C)=O)c(=O)n2C | 1.02
COC1=C(OC)C(=O)c2ccccc2C1=O | 0.985
Oc1ccccc1O | 1
CC(C)NC(C)Cc1ccc(I)cc1 (centres undefined) | 1
COc1ccc(NC(=O)/C=C/c2ccc(Cl)cc2)cc1 | 0.956
CNCCC(Oc1ccccc1OC)c1ccccc1 (centres undefined) | 1
C[N+](C)(C)CC#CCOC(=O)Nc1cccc(Cl)c1 | 0.99
O=c1[nH]ccc2c(O)cccc12 | 0.999

Reported normalized growth, compound O=C(c1ccccc1)c1ccc2n1CCC2C(=O)O (centres undefined) : ____ 0.998

Need normalized growth of COc1cc(Cc2cnc(N)nc2N)cc(OC)c1OC , thanks. 0.968

Which measured normalized growth value corresponds to O=c1onc2n1-c1cc(Br)ccc1OC2 ? 1

Which normalized growth value belongs to NC(C(=O)N[C@@H]1C(=O)N2C(C(=O)O)=C(Cl)CS[C@H]12)c1ccccc1 (some centres undefined) ? 1

Please give the measured normalized growth for this compound: N[C@@H](Cc1cnc[nH]1)C(=O)O 0.991

Which normalized growth is reported for this compound? O=Nc1c(-c2c(O)[nH]c3ccccc23)[nH]c2ccccc12 0.587

Endpoint output: normalized growth of CCCCC/C=C\CC(O)/C=C/c1cccc(CC(O)CCCCO)n1 (centres undefined) . Value? 0.982

###

Test: chemical genetic growth profiling, strain panel (AID 1159580);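 also: tested at 20 µM; growth read once vehicle control cultures reached saturation at 30 °C; 1 = growth at the plate median or of vehicle wells; lower values mean less growth of the strain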
Conditions: S. cerevisiae deletion strains, growth OD, locus YLR403W, strain SFP1, hits give low values
The whole screen tested about 5,500 compounds, of which about 2,000 (36%) were called active. Inconclusive results (about 18%) are left out. The list shows a part of the results.
The following compounds are listed with their measured normalized growth values.

Past entries and their recorded results:
Cc1csc2ncnc(N3CCN(C(=O)Nc4ccc(SC(F)(F)F)cc4)CC3)c12 | 0.905 (inactive)
O=C(Nc1ccccc1Sc1ccc(C(F)(F)F)cc1[N+](=O)[O-])C(Cl)Cl | 0.915 (inactive)

Turning to the following compound.
May I ask what normalized growth has been recorded for O=[N+]([O-])c1cc(C(F)(F)F)ccc1Sc1n[nH]c(-c2cc(Cl)cc(Cl)c2)n1 ? 0.602 (active)
